Taken from patent US20240317764A1.

assay: Dog pharmacokinetic study after oral administration, plasma by LC-MS/MS; assay type: in vivo, male Beagle dogs; conditions: male, Beagle, suspension, 30 mg/kg, mean, plasma Compound I
PROPERTY NAME: Cmax (ng/mL)
Give the value in ng/mL but do not write ng/mL after it.

Entry CCOc1cccc(-c2nc3ncc(NS(C)(=O)=O)nc3n2-c2c(OC)cccc2OC)n1 [Compound I free acid Form A] : reported Cmax = ?
983

---

test: Dog pharmacokinetic study after oral administration, plasma by LC-MS/MS; type: in vivo, male Beagle dogs; settings: male, Beagle, plasma, po, 30 mg/kg, suspension, median value or range
Structures can show the parent of a compound that is named as a salt.
PROPERTY NAME: Tmax

Name the recorded Tmax for CCOc1cccc(-c2nc3ncc(NS(C)(=O)=O)nc3n2-c2c(OC)cccc2OC)n1 [Compound I choline salt Form A] .
2 to 4 h
